# study.target: beta-catenin/TCF4 engagement (Homo sapiens)
# Construct: expressed in transfected cells; host or cells: HEK293
# Sequence (P35222 whole entry): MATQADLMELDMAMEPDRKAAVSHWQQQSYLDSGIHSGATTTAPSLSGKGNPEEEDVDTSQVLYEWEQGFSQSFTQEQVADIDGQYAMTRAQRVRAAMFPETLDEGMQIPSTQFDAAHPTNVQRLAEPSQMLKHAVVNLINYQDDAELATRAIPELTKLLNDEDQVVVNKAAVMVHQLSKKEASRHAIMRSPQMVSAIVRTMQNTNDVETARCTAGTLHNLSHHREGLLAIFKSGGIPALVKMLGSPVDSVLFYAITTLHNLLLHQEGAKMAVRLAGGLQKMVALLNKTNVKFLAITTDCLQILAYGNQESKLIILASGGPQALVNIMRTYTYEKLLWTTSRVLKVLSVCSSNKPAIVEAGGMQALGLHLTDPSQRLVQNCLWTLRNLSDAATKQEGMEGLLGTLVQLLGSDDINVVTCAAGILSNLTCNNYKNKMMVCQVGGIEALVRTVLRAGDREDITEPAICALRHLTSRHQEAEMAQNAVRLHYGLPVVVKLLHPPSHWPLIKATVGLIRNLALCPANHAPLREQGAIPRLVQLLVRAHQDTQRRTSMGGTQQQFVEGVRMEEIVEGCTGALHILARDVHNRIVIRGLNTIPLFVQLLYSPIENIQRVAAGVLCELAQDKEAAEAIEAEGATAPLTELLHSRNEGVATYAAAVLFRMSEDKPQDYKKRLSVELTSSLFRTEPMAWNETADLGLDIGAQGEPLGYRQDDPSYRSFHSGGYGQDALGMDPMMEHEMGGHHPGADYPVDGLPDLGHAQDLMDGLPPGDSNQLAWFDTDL
# assay.details: Nano-BRET target engagement assay (B-cat-Halo & TCF4-Luc in HEK293 cells)
# Format: cell-based
# condition.details: absolute IC50; read-out: NanoBRET Abs IC50
Below, each entry is listed with its recorded IC50.
experimental.readout: IC50 (µM)

compound	operator	observed.result
CC(=O)N1CCC[C@]12CC=CCCCC1(CCCC=CCCCOC(=O)N3CC[C@@](C(=O)N[C@@H](Cc4ccccc4C(F)(F)F)C(=O)N[C@@H](Cc4csc5ccccc45)C(=O)N[C@@H](C)C(N)=O)(C3)NC(=O)[C@H](CC(C)C)NC(=O)[C@H](Cc3ccccc3)NC(=O)[C@H](C)NC(=O)[C@H](CCC(=O)N3CCN(CC(F)(F)F)CC3)NC(=O)[C@H](Cc3cccc(C(=O)O)c3)NC(=O)[C@H](CC(=O)O)NC1=O)NC(=O)[C@H](CC(C)(C)C)NC(=O)[C@H](CC(=O)O)NC2=O (some centres unmarked)	=	1.6
CC(=O)N1CCC[C@]12CC=CCCCC1(CCCC=CCCCCCC[C@@](C)(C(=O)N[C@@H](Cc3ccccc3)C(=O)N[C@@H](Cc3csc4ccccc34)C(=O)N[C@@H](CC(N)=O)C(N)=O)NC(=O)[C@H](CC(N)=O)NC(=O)[C@H](Cc3ccccc3)NC(=O)[C@H](C)NC(=O)[C@H](C)NC(=O)[C@H](CCC(=O)O)NC(=O)[C@H](CC(=O)O)NC1=O)NC(=O)[C@H](CC(C)C)NC(=O)[C@H](CC(=O)O)NC2=O (some centres unmarked) [I-753]	=	10
CCNC(=O)[C@H](CO)NC(=O)[C@H](Cc1csc2ccccc12)NC(=O)[C@H](Cc1ccccc1Cl)NC(=O)[C@]12CCN(C1)C(=O)OCCCC=CCCCC1(CCCC=CC[C@]3(CCCN3C(C)=O)C(=O)N[C@@H](CC(=O)O)C(=O)N[C@@H](CC(C)(C)C)C(=O)N1)C(=O)N[C@@H](CC(=O)O)C(=O)N[C@@H](CC(=O)O)C(=O)N[C@@H](C)C(=O)N[C@@H](C)C(=O)N[C@@H](Cc1ccccc1)C(=O)N[C@@H]([C@@H](C)O)C(=O)N2 (some centres unmarked)	=	17.7
CC(=O)N1CCC[C@]12CC=CCCCC1(CCCC=CCCCOC(=O)N3CC[C@@](C(=O)N[C@@H](Cc4ccsc4)C(=O)N[C@@H](Cc4csc5ccccc45)C(=O)N[C@@H](CCC(N)=O)C(N)=O)(C3)NC(=O)[C@H](CCCNC(=N)N)NC(=O)[C@H](Cc3ccccc3)NC(=O)[C@H](C)NC(=O)C(C)(C)NC(=O)[C@H]([C@@H](C)O)NC(=O)[C@H](CC(N)=O)NC1=O)NC(=O)[C@H](CC(C)(C)C)NC(=O)[C@H](CC(=O)O)NC2=O (some centres unmarked)	>	20
CC(=O)N1CCC[C@]12CC=CCCCC1(CCCC=CCCCOC(=O)N3CC[C@@](C(=O)N[C@@H](Cc4ccsc4)C(=O)N[C@@H](Cc4ccc5ccccc5c4)C(=O)N[C@@H](CCC(N)=O)C(N)=O)(C3)NC(=O)[C@H](CC(C)C)NC(=O)[C@H](Cc3ccccc3)NC(=O)[C@H](C)NC(=O)[C@H](C)NC(=O)[C@H](CC(=O)O)NC(=O)[C@H](CC(=O)O)NC1=O)NC(=O)[C@H](CC(C)(C)C)NC(=O)[C@H](CC(=O)O)NC2=O (some centres unmarked)	=	24.8
